- target: Cytochrome P450 1A2 (Homo sapiens, UniProt P05177)
- Sequence (P05177 whole entry): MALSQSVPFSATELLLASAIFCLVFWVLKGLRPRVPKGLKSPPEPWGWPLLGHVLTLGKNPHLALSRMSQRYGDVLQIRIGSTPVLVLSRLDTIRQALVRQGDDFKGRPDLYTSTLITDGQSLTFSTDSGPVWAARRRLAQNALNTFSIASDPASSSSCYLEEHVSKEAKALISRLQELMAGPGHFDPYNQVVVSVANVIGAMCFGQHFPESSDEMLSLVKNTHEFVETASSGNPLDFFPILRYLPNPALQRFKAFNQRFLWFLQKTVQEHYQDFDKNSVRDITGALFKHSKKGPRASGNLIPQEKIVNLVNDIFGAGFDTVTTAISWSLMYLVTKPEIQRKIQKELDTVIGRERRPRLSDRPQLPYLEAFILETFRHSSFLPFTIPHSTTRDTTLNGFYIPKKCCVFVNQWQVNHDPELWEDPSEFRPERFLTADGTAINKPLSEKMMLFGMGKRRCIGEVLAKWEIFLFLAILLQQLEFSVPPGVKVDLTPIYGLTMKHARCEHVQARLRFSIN
observed-property: IC50

Ask: Hello, I am looking for reported IC50 with Cytochrome P450 1A2 (Homo sapiens, UniProt P05177) for "O=C(O)[C@H]1CC[C@H](C(=O)N2CC[C@](c3ccc(C(F)(C(F)(F)F)C(F)(F)F)cc3)(S(=O)(=O)c3ccc(F)cc3)C2)CC1" . Could you help?
Result: > 20 µM

###

- target: Oxysterols receptor LXR-beta (Homo sapiens, UniProt P55055)
- Sequence (P55055 whole entry): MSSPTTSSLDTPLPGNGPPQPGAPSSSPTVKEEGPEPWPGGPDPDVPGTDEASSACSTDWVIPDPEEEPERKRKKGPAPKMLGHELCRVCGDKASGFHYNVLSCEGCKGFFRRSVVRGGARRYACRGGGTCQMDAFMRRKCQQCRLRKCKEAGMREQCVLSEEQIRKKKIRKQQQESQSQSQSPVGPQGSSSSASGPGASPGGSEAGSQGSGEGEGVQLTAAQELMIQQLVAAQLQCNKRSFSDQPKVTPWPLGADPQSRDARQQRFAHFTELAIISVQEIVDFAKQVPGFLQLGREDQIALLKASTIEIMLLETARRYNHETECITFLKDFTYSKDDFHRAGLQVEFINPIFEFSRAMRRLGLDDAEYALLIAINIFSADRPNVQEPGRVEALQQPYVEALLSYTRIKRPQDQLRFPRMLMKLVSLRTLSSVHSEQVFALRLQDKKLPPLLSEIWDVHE
- experimental-details: Agonist activity at LXRbeta (unknown origin) expressed in African green monkey CV1 cells
Would you kindly list EC50 for each of these molecules?

Ask: Name the reported EC50 value associated with the molecule "CC(=O)N1CCN(C(=O)N2CC[C@@](c3ccc(C(O)(C(F)(F)F)C(F)(F)F)cc3)(S(=O)(=O)c3ccc(F)cc3)C2)CC1"
Result: > 7.5 µM

Ask: Name the reported EC50 value associated with the molecule "COc1ccc(S(=O)(=O)[C@@]2(c3ccc(C(F)(C(F)(F)F)C(F)(F)F)cc3)CCN(C(=O)[C@H]3CC[C@H](C(=O)O)CC3)C2)cc1"
Result: > 7.5 µM

Ask: Name the reported EC50 value associated with the molecule "O=C(O)[C@H]1CC[C@H](C(=O)N2CC[C@](c3ccc(C(O)(C(F)(F)F)C(F)(F)F)cc3)(S(=O)(=O)c3ccc(F)cc3)C2)CC1"
Result: > 7.5 µM

###

Would you kindly list pEC50 for each of these compounds?
- target: Oxysterols receptor LXR-beta (Homo sapiens)
- experimental-details: Agonist activity at LXRbeta (unknown origin) expressed in African green monkey CV1 cells
pEC50: −log10 of the molar value.

Ask: Name the reported pEC50 value associated with the compound "CC(=O)N1CCN(C(=O)N2CC[C@](c3ccc(C(F)(C(F)(F)F)C(F)(F)F)cc3)(S(=O)(=O)c3ccc(F)cc3)C2)CC1"
Result: < 5.12

Ask: Name the reported pEC50 value associated with the compound "CS(=O)(=O)N1CCC(C(=O)N2CC[C@](c3ccc(C(O)(C(F)(F)F)C(F)(F)F)cc3)(S(=O)(=O)c3ccc(F)cc3)C2)CC1"
Result: < 5.12

Ask: Name the reported pEC50 value associated with the compound "O=C(O)[C@H]1CC[C@H](C(=O)N2CC[C@](c3ccc(C(F)(C(F)(F)F)C(F)(F)F)cc3)(S(=O)(=O)c3ccc(F)c(C4CC4)c3)C2)CC1"
Result: < 5.12

###

- experimental-details: Stability in mouse liver microsomes assessed as parent compound remaining after 10 mins
- Type: ADME, Microsome
- experimental-setup: read-out: Stability
observed-property: remaining at 10 min (%)
Number in %, nothing else.

Ask: Name the reported remaining at 10 min value associated with the compound "CS(=O)(=O)N1CCC(C(=O)N2CC[C@](c3ccc(C(F)(C(F)(F)F)C(F)(F)F)cc3)(S(=O)(=O)c3ccc(F)cc3)C2)CC1"
Result: 69

Ask: Name the reported remaining at 10 min value associated with the compound "CCc1cc(S(=O)(=O)[C@@]2(c3ccc(C(F)(C(F)(F)F)C(F)(F)F)cc3)CCN(C(=O)[C@H]3CC[C@H](C(=O)O)CC3)C2)ccc1F"
Result: 73

Ask: Name the reported remaining at 10 min value associated with the compound "Cc1ccc(S(=O)(=O)[C@@]2(c3ccc(C(F)(C(F)(F)F)C(F)(F)F)cc3)CCN(C(=O)[C@H]3CC[C@H](C(=O)O)CC3)C2)cc1"
Result: 85

Ask: Name the reported remaining at 10 min value associated with the compound "CCc1ccc(S(=O)(=O)[C@@]2(c3ccc(C(F)(C(F)(F)F)C(F)(F)F)cc3)CCN(C(=O)[C@H]3CC[C@H](C(=O)O)CC3)C2)cc1"
Result: 100

Ask: Name the reported remaining at 10 min value associated with the compound "O=C(O)[C@H]1CC[C@H](C(=O)N2CC[C@](c3ccc(C(F)(C(F)(F)F)C(F)(F)F)cc3)(S(=O)(=O)c3ccc(F)cc3)C2)CC1"
Result: 86

Ask: Name the reported remaining at 10 min value associated with the compound "Cc1cc(S(=O)(=O)[C@@]2(c3ccc(C(F)(C(F)(F)F)C(F)(F)F)cc3)CCN(C(=O)[C@H]3CC[C@H](C(=O)O)CC3)C2)ccc1F"
Result: 84

###

- experimental-details: Volume of distribution at steady state in Balb/c mouse at 2 mg/kg, iv
- Format: ADME, organism-based
- experimental-setup: in vivo, read-out: Vdss
observed-property: Vd (L/kg)
Number in L/kg, nothing else.

Ask: Name the reported Vd value associated with the compound "O=C(O)[C@H]1CC[C@H](C(=O)N2CC[C@](c3ccc(C(F)(C(F)(F)F)C(F)(F)F)cc3)(S(=O)(=O)c3ccc(F)cc3)C2)CC1"
Result: 3.4

###

- experimental-details: Tmax in Balb/c mouse at 10 mg/kg, po
- Assay type: ADME, organism-based
- experimental-setup: in vivo
observed-property: Tmax (h)
Number in h, nothing else.

Ask: Name the reported Tmax value associated with the compound "O=C(O)[C@H]1CC[C@H](C(=O)N2CC[C@](c3ccc(C(F)(C(F)(F)F)C(F)(F)F)cc3)(S(=O)(=O)c3ccc(F)cc3)C2)CC1"
Result: 2

###

- experimental-details: Protein binding in mouse plasma assessed as unbound fraction
- Type: ADME, cell-free
observed-property: fraction unbound
Lab note: record the figure alone, no unit after it.

Ask: Name the reported fraction unbound value associated with the compound "Cc1ccc(S(=O)(=O)[C@@]2(c3ccc(C(F)(C(F)(F)F)C(F)(F)F)cc3)CCN(C(=O)[C@H]3CC[C@H](C(=O)O)CC3)C2)cc1"
Result: 0.026

Ask: Name the reported fraction unbound value associated with the compound "O=C(O)[C@H]1CC[C@H](C(=O)N2CC[C@](c3ccc(C(F)(C(F)(F)F)C(F)(F)F)cc3)(S(=O)(=O)c3ccc(F)cc3)C2)CC1"
Result: 0.105

Ask: Name the reported fraction unbound value associated with the compound "Cc1cc(S(=O)(=O)[C@@]2(c3ccc(C(F)(C(F)(F)F)C(F)(F)F)cc3)CCN(C(=O)[C@H]3CC[C@H](C(=O)O)CC3)C2)ccc1F"
Result: 0.029

###

- experimental-details: Inhibition of CYP1B2 (unknown origin)
- Assay type: ADME, Homo sapiens
observed-property: IC50

Ask: Name the reported IC50 value associated with the molecule "O=C(O)[C@H]1CC[C@H](C(=O)N2CC[C@](c3ccc(C(F)(C(F)(F)F)C(F)(F)F)cc3)(S(=O)(=O)c3ccc(F)cc3)C2)CC1"
Result: > 20 µM

###

- target: Cytochrome P450 2C9 (Homo sapiens)
- Sequence (P11712 whole entry): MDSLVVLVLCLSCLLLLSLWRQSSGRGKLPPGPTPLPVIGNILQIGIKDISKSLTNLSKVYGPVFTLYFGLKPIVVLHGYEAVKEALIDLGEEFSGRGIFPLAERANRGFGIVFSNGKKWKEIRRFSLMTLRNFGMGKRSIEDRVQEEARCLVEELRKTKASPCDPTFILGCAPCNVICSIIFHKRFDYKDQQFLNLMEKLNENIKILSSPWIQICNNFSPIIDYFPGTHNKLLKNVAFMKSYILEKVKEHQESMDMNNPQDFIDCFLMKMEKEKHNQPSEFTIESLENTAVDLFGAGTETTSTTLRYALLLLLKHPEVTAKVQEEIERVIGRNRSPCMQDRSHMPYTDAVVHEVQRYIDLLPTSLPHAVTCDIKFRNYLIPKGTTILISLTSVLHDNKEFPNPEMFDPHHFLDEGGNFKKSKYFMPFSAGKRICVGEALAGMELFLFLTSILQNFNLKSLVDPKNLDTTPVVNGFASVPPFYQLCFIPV
observed-property: IC50

Ask: Name the reported IC50 value associated with the compound "O=C(O)[C@H]1CC[C@H](C(=O)N2CC[C@](c3ccc(C(F)(C(F)(F)F)C(F)(F)F)cc3)(S(=O)(=O)c3ccc(F)cc3)C2)CC1"
Result: > 20 µM

###

Would you kindly list pEC50 for each of these compounds?
- target: Nuclear receptor subfamily 1 group I member 2 (Homo sapiens, UniProt O75469)
- Sequence (O75469 whole entry): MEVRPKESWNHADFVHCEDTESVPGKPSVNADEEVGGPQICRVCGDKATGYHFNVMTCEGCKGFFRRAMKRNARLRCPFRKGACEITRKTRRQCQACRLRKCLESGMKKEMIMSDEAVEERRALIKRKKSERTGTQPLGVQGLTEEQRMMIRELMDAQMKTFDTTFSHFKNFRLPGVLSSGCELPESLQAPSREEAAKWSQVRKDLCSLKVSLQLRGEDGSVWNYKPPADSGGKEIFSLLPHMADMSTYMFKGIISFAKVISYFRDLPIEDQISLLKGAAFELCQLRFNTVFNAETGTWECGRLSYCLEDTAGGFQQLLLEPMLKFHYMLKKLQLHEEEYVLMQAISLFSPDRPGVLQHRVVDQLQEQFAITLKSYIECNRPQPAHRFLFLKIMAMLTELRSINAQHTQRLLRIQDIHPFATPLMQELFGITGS
- experimental-details: Transactivation of PXR in human HepG2 cells
In plain terms, pEC50 is the concentration in mol/L turned into minus its base-10 logarithm.

Ask: Hello, I am looking for reported pEC50 with Nuclear receptor subfamily 1 group I member 2 (Homo sapiens, UniProt O75469) for CCC(O)(c1ccc(C2(S(=O)(=O)c3ccc(F)cc3)CCCC2)cc1)C(F)(F)F (racemic) . Could you help?
Result: 7.32

Ask: Hello, I am looking for reported pEC50 with Nuclear receptor subfamily 1 group I member 2 (Homo sapiens, UniProt O75469) for "O=S(=O)(c1ccc(F)cc1)C1(c2ccc(C(F)(C(F)(F)F)C(F)(F)F)cc2)CCCC1" . Could you help?
Result: 6.00

Ask: Hello, I am looking for reported pEC50 with Nuclear receptor subfamily 1 group I member 2 (Homo sapiens, UniProt O75469) for CC(O)(c1ccc(C2(S(=O)(=O)c3ccc(F)cc3)CCCC2)cc1)C(F)(F)F (racemic) . Could you help?
Result: 6.62

Ask: Hello, I am looking for reported pEC50 with Nuclear receptor subfamily 1 group I member 2 (Homo sapiens, UniProt O75469) for O=C(C1CCCC1)N1CCC(c2ccc(C(O)(C(F)(F)F)C(F)(F)F)cc2)(S(=O)(=O)c2ccc(F)cc2)C1 (racemic) . Could you help?
Result: 6.10
